target: recombinant cynomolgus monkey CD3ε/δ heterodimer (cynomolgus monkey) (UniProt Q95LI5); assay: ELISA, coated CD3ε/δ
Sequence (Q95LI5 22-117, stated change not applied, chain 1 of 2): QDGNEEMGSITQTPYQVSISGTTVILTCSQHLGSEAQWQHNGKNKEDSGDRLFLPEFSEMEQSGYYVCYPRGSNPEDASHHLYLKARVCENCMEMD
Sequence (Q95LI8 22-105, stated change not applied, chain 2 of 2, further chain): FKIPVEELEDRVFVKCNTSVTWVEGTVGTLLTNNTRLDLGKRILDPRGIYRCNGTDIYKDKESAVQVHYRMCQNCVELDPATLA
Parameter: Absorbance (450 nm). Scope: all listed entries.
A bare number is all that is needed in reply.

{"binder": "B15 (antibody, human IgG1, lambda, L234A L235A, V domains shown) VH: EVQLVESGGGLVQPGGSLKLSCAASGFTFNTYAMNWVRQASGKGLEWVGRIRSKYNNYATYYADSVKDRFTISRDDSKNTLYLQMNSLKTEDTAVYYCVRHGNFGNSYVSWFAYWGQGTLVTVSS VL: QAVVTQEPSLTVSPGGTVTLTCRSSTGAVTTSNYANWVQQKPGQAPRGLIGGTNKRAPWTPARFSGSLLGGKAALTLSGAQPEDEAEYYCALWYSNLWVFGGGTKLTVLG", "Absorbance (450 nm)": 3.16}
{"binder": "D10 (antibody, human IgG1, lambda, L234A L235A, V domains shown) VH: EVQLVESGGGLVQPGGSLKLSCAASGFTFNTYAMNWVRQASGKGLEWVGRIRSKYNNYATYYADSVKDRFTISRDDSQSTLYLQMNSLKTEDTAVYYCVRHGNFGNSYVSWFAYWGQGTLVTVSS VL: QAVVTQEPSLTVSPGGTVTLTCRSSTGAVTTSNYANWVQQKPGQAPRTLIYGTNKRAPWTPARFSGSLLGDKAALTLSGAQPEDEAEYYCALWYSNLWVFGGGTKLTVLG", "Absorbance (450 nm)": 0.113}
{"binder": "C06 (antibody, human IgG1, lambda, L234A L235A, V domains shown) VH: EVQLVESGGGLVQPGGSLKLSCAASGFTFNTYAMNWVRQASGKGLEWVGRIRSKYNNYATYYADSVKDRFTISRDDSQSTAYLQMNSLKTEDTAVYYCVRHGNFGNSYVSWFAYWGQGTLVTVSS VL: QAVVTQEPSLTVSPGGTVTLTCRSSTGAVTTSNYANWFQQKPGQAPRGLIYGTNKRAPWTPARFSGSLLGDKAALTLSGAQPEDEAEYYCALWYSNLWVFGGGTKLTVLG", "Absorbance (450 nm)": 0.083}
{"binder": "F05 (antibody, human IgG1, lambda, L234A L235A, V domains shown) VH: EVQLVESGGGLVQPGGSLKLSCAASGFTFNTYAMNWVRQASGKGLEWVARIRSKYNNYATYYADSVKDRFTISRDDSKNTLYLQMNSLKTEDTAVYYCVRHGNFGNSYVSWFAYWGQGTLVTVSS VL: QAVVTQEPSLTVSPGGTVTLTCRSSTGAVTTSNYANWFQQKPGQAPRGLIYGTNKRAPWTPARFSGSLLGGKAALTLSGAQPEDEAEYYCALWYSNLWVFGGGTKLTVLG", "Absorbance (450 nm)": 0.075}

// next entry
Task: Please report the recorded Absorbance (450 nm) for H14 (antibody, human IgG1, lambda, L234A L235A, V domains shown) VH: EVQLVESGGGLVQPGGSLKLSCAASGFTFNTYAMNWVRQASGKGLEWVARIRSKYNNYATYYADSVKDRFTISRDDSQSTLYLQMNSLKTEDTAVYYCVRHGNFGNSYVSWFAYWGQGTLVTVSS VL: QAVVTQEPSLTVSPGGTVTLTCRSSTGAVTTSNYANWVQQKPGQAPRGLIYGTNKRAPWTPARFSGSLLGDKAALTLSGAQPEDEAEYYCALWYSNLWVFGGGTKLTVLG .
Output: 0.094
